target: SRPK1 (human) (UniProt Q96SB4); assay: radiometric filter-binding kinase assay; conditions: compound 10.0 µM
Sequence (Q96SB4 whole entry, looked up): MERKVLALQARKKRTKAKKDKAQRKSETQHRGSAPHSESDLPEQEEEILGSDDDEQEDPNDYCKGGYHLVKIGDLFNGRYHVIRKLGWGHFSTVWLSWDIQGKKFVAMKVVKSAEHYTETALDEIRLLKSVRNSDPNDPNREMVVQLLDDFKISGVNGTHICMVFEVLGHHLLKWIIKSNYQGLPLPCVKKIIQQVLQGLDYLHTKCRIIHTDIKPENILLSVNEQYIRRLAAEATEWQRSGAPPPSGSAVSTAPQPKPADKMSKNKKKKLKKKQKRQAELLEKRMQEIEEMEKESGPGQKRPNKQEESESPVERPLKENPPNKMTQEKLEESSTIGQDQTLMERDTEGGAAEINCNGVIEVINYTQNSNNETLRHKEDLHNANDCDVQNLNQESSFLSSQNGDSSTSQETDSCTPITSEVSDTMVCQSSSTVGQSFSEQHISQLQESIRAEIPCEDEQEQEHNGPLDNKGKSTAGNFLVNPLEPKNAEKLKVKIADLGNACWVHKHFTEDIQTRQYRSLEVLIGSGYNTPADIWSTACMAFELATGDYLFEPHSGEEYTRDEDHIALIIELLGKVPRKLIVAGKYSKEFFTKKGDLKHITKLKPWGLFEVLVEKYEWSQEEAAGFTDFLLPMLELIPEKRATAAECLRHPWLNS
RESULT TYPE: residual activity (%)

{"SMILES": "COc1cc2ncn(-c3cc(OCc4ccccc4S(C)(=O)=O)c(C#N)s3)c2cc1OC", "RESULT TYPE": "residual activity", "READING": 79}
{"SMILES": "c1ccc2c(-c3cnn4cc(-c5ccc(N6CCNCC6)cc5)cnc34)ccnc2c1", "RESULT TYPE": "residual activity", "READING": 79}
{"SMILES": "O=S(=O)(c1ccc(F)c2nonc12)N1CCN(c2ncc(C(F)(F)F)cc2Cl)CC1", "RESULT TYPE": "residual activity", "READING": 82}
